Give measured BRM Max % Inhibition for each item. Keep answers brief.
- STUDY_SYSTEM: BRM (Homo sapiens)
- Sequence (P51531 whole entry): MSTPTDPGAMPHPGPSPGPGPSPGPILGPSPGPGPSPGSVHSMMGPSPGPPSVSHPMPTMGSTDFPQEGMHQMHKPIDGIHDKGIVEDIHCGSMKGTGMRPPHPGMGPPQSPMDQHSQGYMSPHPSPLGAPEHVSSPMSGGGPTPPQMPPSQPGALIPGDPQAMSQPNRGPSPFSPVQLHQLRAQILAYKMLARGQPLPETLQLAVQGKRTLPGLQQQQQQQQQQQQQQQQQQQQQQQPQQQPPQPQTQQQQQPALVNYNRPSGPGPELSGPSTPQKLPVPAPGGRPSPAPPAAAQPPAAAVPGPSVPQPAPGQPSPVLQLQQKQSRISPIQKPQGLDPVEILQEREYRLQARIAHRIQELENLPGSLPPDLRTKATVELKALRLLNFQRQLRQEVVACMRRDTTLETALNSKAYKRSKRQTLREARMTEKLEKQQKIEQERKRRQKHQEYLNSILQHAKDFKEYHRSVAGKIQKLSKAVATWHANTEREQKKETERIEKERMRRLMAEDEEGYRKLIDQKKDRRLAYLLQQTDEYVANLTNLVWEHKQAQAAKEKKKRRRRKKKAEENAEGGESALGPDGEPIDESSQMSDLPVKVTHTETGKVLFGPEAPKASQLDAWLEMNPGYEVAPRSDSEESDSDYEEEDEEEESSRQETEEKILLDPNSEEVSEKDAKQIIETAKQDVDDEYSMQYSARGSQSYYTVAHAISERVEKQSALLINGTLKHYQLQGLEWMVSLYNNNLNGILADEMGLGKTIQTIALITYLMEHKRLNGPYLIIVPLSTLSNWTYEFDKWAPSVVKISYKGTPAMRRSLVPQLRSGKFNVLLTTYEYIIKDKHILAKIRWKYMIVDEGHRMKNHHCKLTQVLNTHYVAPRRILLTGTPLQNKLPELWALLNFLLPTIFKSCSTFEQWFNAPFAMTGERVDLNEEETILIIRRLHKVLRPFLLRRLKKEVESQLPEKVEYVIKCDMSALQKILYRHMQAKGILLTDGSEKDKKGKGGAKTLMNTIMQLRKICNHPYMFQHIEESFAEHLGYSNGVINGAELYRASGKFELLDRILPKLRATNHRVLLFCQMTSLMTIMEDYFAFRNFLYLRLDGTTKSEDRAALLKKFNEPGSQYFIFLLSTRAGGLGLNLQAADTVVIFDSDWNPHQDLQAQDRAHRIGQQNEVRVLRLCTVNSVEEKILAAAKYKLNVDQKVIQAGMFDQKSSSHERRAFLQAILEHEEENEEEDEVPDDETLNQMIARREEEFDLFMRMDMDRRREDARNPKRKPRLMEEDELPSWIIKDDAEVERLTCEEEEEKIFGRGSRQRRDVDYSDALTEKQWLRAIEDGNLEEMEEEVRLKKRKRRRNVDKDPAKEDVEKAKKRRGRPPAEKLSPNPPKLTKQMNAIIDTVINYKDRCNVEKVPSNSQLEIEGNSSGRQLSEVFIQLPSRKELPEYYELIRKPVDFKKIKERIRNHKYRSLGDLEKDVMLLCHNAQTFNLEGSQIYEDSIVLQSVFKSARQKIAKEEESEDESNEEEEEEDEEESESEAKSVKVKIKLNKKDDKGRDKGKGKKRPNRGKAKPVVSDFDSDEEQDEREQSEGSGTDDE
- PROTOCOL_DESCRIPTION: ATPase catalytic activity assay (ADP-Glo), BRM
- CONDITION_SUMMARY: 30 nM BRM, 400 μM ATP
Answers are plain numbers, in %.

// solved cases for BRM Max % Inhibition follow
For the molecule shown here, `C[C@@]1(C#N)COCc2ccc(C(=O)NCc3cc([C@H]4C[C@@H]4c4ccccc4)ccn3)cc21` , give the reported BRM Max % Inhibition. 81

For `C[C@@]1(C#N)COCc2ccc(C(=O)NCc3cc(C#Cc4ccccc4)c(F)cn3)cc21` , what is its reported BRM Max % Inhibition? 83

What value of measured BRM Max % Inhibition is listed for `C[C@@]1(F)COCc2ccc(C(=O)NCc3cc4nc(-c5cccc(N=S(C)(C)=O)n5)ccc4cn3)cc21` ? 98

Further cases:
# lookup: BRM Max % Inhibition of `C[C@@]1(C#N)COCc2ccc(C(=O)NCc3cc4nc(-c5ccnc(C6CCC6)n5)ccc4cn3)cc21` 98

All values here come from patent US12441726B2.
